Catalogue of T/C % of MST values
Tested on: B16 melanoma
TEST: In vivo antitumor activity against B16 melanoma in mice (ip, Q4Dx3)
Parameters: species or system mice (male BDF1)
TEST SETTINGS: 1 mg/kg/day, Q4Dx3 ip
Structures can show the parent of a compound that is named as a salt.
Report field: quantity (unit follows the number).

Solved cases below.
>  <COMPOUND>
CO[C@H]1[C@@H](O)[C@@H](C)O[C@H](O[C@H]2[C@H](Oc3cccc4c(O)c5c(=O)oc6ccc(C)c7c(=O)oc(c34)c5c67)O[C@H](C)[C@H](O)[C@]2(C)O)[C@@H]1NC=N [Compound 5, hydrochloride]

>  <MEASURED METRIC>
T/C % of MST

>  <MEASURED RESULT>
103%

$$$$
>  <COMPOUND>
CO[C@H]1[C@@H](O)[C@@H](C)O[C@H](O[C@H]2[C@H](Oc3cccc4c(O)c5c(=O)oc6ccc(C)c7c(=O)oc(c34)c5c67)O[C@H](C)[C@H](O)[C@]2(C)O)[C@@H]1N(C)C

>  <MEASURED METRIC>
T/C % of MST

>  <MEASURED RESULT>
103%

$$$$
>  <COMPOUND>
CN[C@H]1[C@@H](O[C@H]2[C@H](Oc3cccc4c(O)c5c(=O)oc6ccc(C)c7c(=O)oc(c34)c5c67)O[C@H](C)[C@H](O)[C@]2(C)O)O[C@H](C)[C@H](O)[C@@H]1OC

>  <MEASURED METRIC>
T/C % of MST

>  <MEASURED RESULT>
100%

$$$$

Shifting focus to the compound that follows.
Memo: CO[C@@H]1[C@@H](N)[C@@H](O[C@H]2[C@H](Oc3cccc4c(O)c5c(=O)oc6ccc(C)c7c(=O)oc(c34)c5c67)O[C@H](C)[C@H](O)[C@]2(C)O)O[C@H](C)[C@@H]1O , reported T/C % of MST: 168%
